assay: HepG2 cell viability effects, profiling panel, calcein-AM fluorescence, 48 h, basal (AID 1164); conditions: higher = more signal; note: test concentration not given here
Reported z-score values for the following molecules.
Number, no unit, nothing else.

COc1ccc([Si](C)(C)[C@@H]2[C@@H](CCn3cc([C@H](O)c4ccccc4)nn3)O[C@]3(C(=O)N(Cc4ccc(N5C(=O)c6cccc7cccc5c67)cc4)c4ccccc43)[C@H]2C)cc1	-0.394
CC(=O)Nc1cc(Br)ccc1C(=O)O	0.332
COc1cc(C(O)C2C=CC3C(=O)N(c4ccccc4)C(=O)C3N2Nc2ccc(C#N)cc2)cc(OC)c1OC (centres undefined)	-0.272

Attention now shifts to the item below.
Input line: Query: z-score; subject: `COC(=O)C[C@@H]1C[C@H](C)[C@]2(O1)C(=O)N(Cc1ccccc1)c1ccc(NC(C)=O)cc12`
Output line: -0.258

====

Reported composite z-score values for the following compounds.
test: small-molecule microarray binders of probe aLefty2, primary screen, biochemical, biotinylated probe, 635/667 nm fluorescence (AID 1094); conditions: higher = more signal;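 note: score merges spot fluorescence near 667 nm with spot signal-to-noise ratio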
Please respond with just the number, no unit label.

Solved entries:
COC(=O)c1ccc(C(O)C2C=CC3C(=O)N(C)C(=O)C3N2NC(=O)OC(C)(C)C)o1 (stereo not given)	0.177
CC(C)N1C(=O)c2ccccc2[C@@H](C(=O)NCCCN(C)C)[C@@H]1c1ccc(CO)cc1	0.196
COc1cc(C(O)C2C=CC3C(=O)N(c4ccccc4)C(=O)C3N2Nc2ccc(C#N)cc2)cc(OC)c1OC (stereo not given)	0.368
O=C/C=C/c1ccc2c(c1)OCO2	-0.151

Input line: I'd like to know its composite z-score. The compound in question is COc1ccc(C(O)C2C=CC3C(=O)N(c4ccccc4)C(=O)C3N2Nc2ccc([N+](=O)[O-])cc2)cc1OCc1ccccc1 (stereo not given)
Output line: 1.25

====

system: Noggin (protein binding on small-molecule microarray); test: Noggin binders on small-molecule microarray, primary screen, biochemical, 635/667 nm fluorescence (AID 1095); conditions: 635 nm fluorescence, higher = more signal;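 note: score merges 667 nm feature fluorescence with signal to noise over triplicate slides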
measuredQuantity: composite z-score
Respond numerically, and do not add a unit to the figure.

The following molecules have reported results that may help.
O=C1O[C@H](c2ccccc2)[C@H](c2ccccc2)N2[C@H]1[C@@H](C(=O)Nc1nc3ccccc3s1)[C@]1(C(=O)Nc3ccccc31)[C@H]2c1ccc(O)cc1	1.24
Cc1cc(C)c(C(O)C2C=CC3C(=O)N(C)C(=O)C3N2Nc2ccccc2)c(C)c1 (centres undefined)	0.0355
CN(C)CCCNC(=O)[C@@]1(Cc2ccccc2I)c2ccccc2C(=O)N(Cc2ccccc2C(F)(F)F)[C@H]1c1ccc(CO)cc1	-1.16

--- query ---
Input line: Query (molecule): `CCOC(=O)C[C@H]1[C@H](OC(=O)c2ccc(C(=O)c3ccccc3)cc2)[C@@H](NC(=O)C2CCCCC2)c2cc(OCCCO)ccc2N1C(=O)c1ccccc1` ; field requested: composite z-score
Output line: 0.45

====

test system: Sonic hedgehog protein (Shh); test: small-molecule binders of Shh protein, primary screen, biochemical, small-molecule microarray, 635/667 nm fluorescence (AID 1151); conditions: small-molecule microarray binding, 635 nm fluorescence; higher = more signal;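 note: Shh protein binding to compounds spotted on small-molecule microarray slides; score combines spot fluorescence intensity with signal-to-noise across triplicate slides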
measuredQuantity: composite z-score
Could you keep your reply to the number by itself?

// worked examples, composite z-score included
[N-]=[N+]=Nc1ccccc1[C@H]1OC(c2ccc(OCCCO)cc2)=N[C@@]1(CCS(=O)(=O)c1ccccc1)C(=O)O	-0.721
CCOC(=O)C1=CC[C@@H](c2ccccc2)N(S(=O)(=O)c2ccc(C)cc2)[C@H]1C(=O)OCC	-0.189
Cc1ccc(S[C@]2(C(=O)NCc3ccccc3)CC(=O)N(Cc3ccccc3Cl)[C@@H]2c2ccc(CO)cc2I)cc1	0.262

Now for a further molecule.
Input line: Short answer please: composite z-score, Sonic hedgehog protein (Shh), entry C#CCN(C(/C=C/c1ccccc1)CO)C(C(=O)O)c1ccccc1 (centres undefined)
Output line: -0.514
